From: PubChem BioAssay

Target: Neurogenic locus notch homolog protein 3 (Homo sapiens)
Test: NOTCH3 binders on small-molecule microarray, primary screen, biochemical, 635/667 nm fluorescence (AID 1096)
Conditions: NOTCH3 binding, 635 nm fluorescence, higher = more signal
// f strictly below 0.4 in composite z-score; t otherwise

{"molecule": "CCOC(=O)[C@H]1C/C=C/C[C@H](C(=O)OCC)C(=O)O[C@H]2[C@@H](OC)O[C@H](CO)[C@@H](OC(=O)CCc3ccccc3)[C@@H]2OC1=O", "group": "f"}
{"molecule": "C=CCOC(=O)[C@@H]1[C@H]2C(=O)O[C@H](c3ccccc3)[C@H](c3ccccc3)N2[C@H](c2ccc(OCCOC(=O)[C@H]3C[C@H]4C(=O)N[C@@H](CCCC[N+](C)(C)C)C(=O)N4[C@H]3c3ccc(O)cc3)cc2)[C@@]12C(=O)Nc1ccc(I)cc12", "group": "t"}
{"molecule": "CN1C(=O)[C@@]2(CCS(=O)(=O)c3ccccc3)N=C(c3ccc(OCCCO)cc3)O[C@H]2c2ccccc21", "group": "f"}
{"molecule": "COc1ccc([Si](C)(C)[C@@H]2[C@@H](CCO)O[C@]3(C(=O)N(Cc4cccc(N5C(=O)c6cccc7cccc5c67)c4)c4ccccc43)[C@H]2C)cc1", "group": "f"}
{"molecule": "C[C@]1(C(=O)NCCN2CCOCC2)c2ccccc2C(=O)N(Cc2ccc(OC(F)(F)F)cc2)[C@H]1c1ccc(CO)cc1", "group": "f"}
{"molecule": "CN(C)CCCCNC(=O)[C@H]1C[C@H]2C(=O)N3CCC[C@H]3C(=O)N2[C@H]1c1ccc(O)cc1", "group": "f"}
{"molecule": "[N-]=[N+]=NCc1ccccc1C[C@]1(C(=O)NCC(O)CO)N=C(c2ccc(OCCCO)cc2)O[C@H]1c1ccccc1CN=[N+]=[N-] (some centres not stated)", "group": "t"}
{"molecule": "CC(C)N1C(=O)[C@@]2(c3ccc([N+](=O)[O-])cc3)CC(=O)N(C3CCCCC3)[C@@H]2c2ccc(CO)cc21", "group": "f"}
{"molecule": "C=CCN1C(=O)[C@]2(CC=C)N=C(c3ccc(OCCCO)cc3)O[C@@H]2c2ccccc21", "group": "t"}
{"molecule": "O=C1C[C@@](C(=O)NCC(F)(F)F)(c2ccc([N+](=O)[O-])cc2)[C@@H](c2ccc(CO)cc2)N1C1CCCCC1", "group": "t"}
{"molecule": "C=CCOC(=O)[C@H]1[C@@H]2C(=O)O[C@@H](c3ccccc3)[C@@H](c3ccccc3)N2[C@@H](c2ccc(OCCOC(=O)[C@H]3C[C@H]4C(=O)N[C@@H](Cc5ccccc5)C(=O)N4[C@H]3c3cccc(OCCO)c3)cc2)[C@]12C(=O)Nc1ccc(I)cc12", "group": "t"}
{"molecule": "NC(=O)NCC#Cc1ccc2c(c1)[C@]1(C(=O)N2)[C@H](C(=O)Nc2nc3ccccc3s2)[C@H]2C(=O)O[C@H](c3ccccc3)[C@H](c3ccccc3)N2[C@@H]1c1ccc(O)cc1", "group": "t"}

----------
Test: small-molecule binders of probe aLefty1, primary screen, biochemical, small-molecule microarray, 635/667 nm fluorescence (AID 1153);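 also: score merges spot fluorescence with signal-to-noise ratio from the scanned slide images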
Settings: higher = more signal

{"smiles text": "CC(C)(C)OC(=O)CC[C@]1(C(=O)NCCN2CCOCC2)N=C(c2ccc(OCCCO)cc2)O[C@H]1c1ccccc1N=[N+]=[N-]", "composite z-score": 0.591}
{"smiles text": "C=C(/C=C/CNS(=O)(=O)c1ccc(C)cc1)[C@H](O)[C@H]1CCCN1S(=O)(=O)c1ccccc1[N+](=O)[O-]", "composite z-score": -0.185}
{"smiles text": "NCCCCCCNC(=O)[C@H]1C[C@H]2C(=O)N[C@@H](Cc3ccccc3)C(=O)N2[C@H]1c1ccc(O)cc1", "composite z-score": -0.0094}
{"smiles text": "CN1C(=O)[C@@]2(CCS(=O)(=O)c3ccccc3)N=C(c3ccc(OCCCO)cc3)O[C@H]2c2ccccc21", "composite z-score": -0.0003}

----------
System: Inhibin beta A chain (activin A)
Assay: INHBA (activin A) binders on microarrays, primary screen, biochemical, small-molecule microarray, 635 nm fluorescence scan (AID 1107);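 also: mouse activin A protein probed at 4.33 µg/mL on printed slides; score merges bound-protein fluorescence near 667 nm with spot signal-to-noise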
Conditions: small-molecule microarray binding, higher = more signal

{"compound": "C=CCNC(=O)[C@@H]1[C@H]2C(=O)O[C@H](c3ccccc3)[C@H](c3ccccc3)N2[C@H](c2ccc(OCCO)cc2)[C@@]12C(=O)N(C(=O)OCCOC)c1ccc(C#CC3=CCCCC3)cc12", "composite z-score": 0.726}
{"compound": "COCCOC(=O)N1C(=O)[C@@]2(c3cc(C#CC4=CCCCC4)ccc31)[C@H](C(=O)N1CCN(c3ncccn3)CC1)[C@H]1C(=O)O[C@H](c3ccccc3)[C@H](c3ccccc3)N1[C@@H]2c1ccc(O)cc1", "composite z-score": 0.275}
{"compound": "C=CC[C@@]1(C(=O)O)N=C(c2ccc(OCCCO)cc2)O[C@@H]1c1ccccc1", "composite z-score": -0.361}
{"compound": "CCCCC(=C=CC[C@@H](O)c1ccc(OCCO)cc1)C[C@@H](O)COCc1ccccc1", "composite z-score": 0.856}
{"compound": "CC(C)(C)OC(=O)CC[C@@]1(C(=O)O)N=C(c2ccc(OCCCO)cc2)O[C@@H]1c1ccccc1", "composite z-score": 0.253}
{"compound": "C=CCOC(=O)[C@@H]1[C@H]2C(=O)O[C@H](c3ccccc3)[C@H](c3ccccc3)N2[C@H](c2ccc(OCCOC(=O)[C@H]3C[C@H]4C(=O)N[C@@H](CCCCN(C)C)C(=O)N4[C@H]3c3cccc(OCCO)c3)cc2)[C@@]12C(=O)Nc1ccc(I)cc12", "composite z-score": 0.208}
{"compound": "COC1(C)CN(Cc2ccccc2Br)[C@H](/C=C/c2ccccc2)[C@H](Cc2ccccc2)O1 (stereo partly drawn)", "composite z-score": -0.19}
{"compound": "CCOC(=O)[C@H]1C/C=C/C[C@H](C(=O)OCC)C(=O)O[C@H]2[C@@H](OC)O[C@H](CO)[C@@H](OC(=O)CCc3ccccc3)[C@@H]2OC1=O", "composite z-score": 0.334}
{"compound": "CC(C)C[C@@H]1NC(=O)[C@H]2C[C@@H](C(=O)NCCCCCC[N+](C)(C)C)[C@@H](c3cccc(OCCO)c3)N2C1=O", "composite z-score": 0.682}
{"compound": "[N-]=[N+]=Nc1ccccc1[C@H]1OC(c2ccc(OCCCO)cc2)=N[C@@]1(CCS(=O)(=O)c1ccccc1)C(=O)N1CCCCC1", "composite z-score": 1.38}
{"compound": "COCCCNC(=O)[C@@]1(Sc2ccc(C)cc2)CC(=O)N(Cc2cc(C(F)(F)F)cc(C(F)(F)F)c2)[C@@H]1c1ccc(CO)cc1", "composite z-score": 0.612}
{"compound": "COC(=O)[C@@]1(Cc2ccccc2)[C@H]2c3cc(C(=O)N4CCCC4)n(C[C@H](O)CO)c3C[C@H]2CN1C(=O)c1ccccc1", "composite z-score": 0.956}
{"compound": "Cc1c(NC(=O)/C(C#N)=C/C=C/c2ccccc2[N+](=O)[O-])c(=O)n(-c2ccccc2)n1C", "composite z-score": 0.0089}

----------
Biological target: Focal adhesion kinase 1 (Homo sapiens)
Test: small-molecule microarray binders of FAK, primary screen, biochemical, 635/667 nm fluorescence, BSA, DTT (AID 1130);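 also: composite of spot emission at 667 nm and signal to noise over triplicate slides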
Conditions: PTK2 binding, 635 nm fluorescence, higher = more signal
just bin them by composite z-score: low = under 0.2, intermediate = from 0.2 up to 0.5, high = 0.5 and over

{"compound": "Cc1ccc(S[C@]2(C(=O)NCC(F)(F)F)CC(=O)N(Cc3ccccc3)[C@@H]2c2ccc(CO)cc2)cc1", "group": "low"}
{"compound": "C[C@H]1C2=C3C(CC[C@H]4C(OCc5ccc(F)cc5C(F)(F)F)OC[C@](C)([C@@H]34)N(C(=O)OC(C)(C)C)C2)C2COC(=O)OCC21 (some centres undefined)", "group": "high"}
{"compound": "COc1cc(CO)cc(I)c1O[C@H]1C=C(C(=O)NCCO)C[C@@H](NCc2ccccc2F)[C@@H]1O", "group": "low"}
{"compound": "C=CCN1C(=O)[C@@]2(O[C@@H](CCO)[C@H]([Si](C)(C)c3ccc(OC)cc3)[C@H]2C)c2cc(N3C(=O)c4ccccc4Oc4ccccc43)ccc21", "group": "low"}
{"compound": "CN(C)CCCCNC(=O)[C@H]1C[C@H]2C(=O)N[C@@H](CCCCN(C)C)C(=O)N2[C@H]1c1cccc(OCCO)c1", "group": "intermediate"}
{"compound": "NCCCCCCNC(=O)[C@@H]1C[C@@H]2C(=O)N3CCC[C@H]3C(=O)N2[C@@H]1c1ccc(O)cc1", "group": "intermediate"}
{"compound": "C=CCC(OC(C)=O)[C@@H]1[C@@H](N(Cc2ccc(-c3ccccc3)cc2)C(=O)c2cccc3ccccc23)c2cc(OCCCO)ccc2N1C(=O)Cc1ccc2ccccc2c1 (some centres undefined)", "group": "low"}
{"compound": "C=C(COC)/C(=C/C[C@@H](OC(=O)c1ccncc1)c1cccc(OCCO)c1)c1cnc2ccccc2c1", "group": "low"}
{"compound": "NCCCCCCNC(=O)[C@H]1C[C@H]2C(=O)N[C@@H](Cc3ccccc3)C(=O)N2[C@H]1c1ccc(O)cc1", "group": "high"}
{"compound": "C=C(COC)/C(=C/C[C@@H](OC(=O)c1ccncc1)c1ccc(CO)o1)c1cnc2ccccc2c1", "group": "intermediate"}
{"compound": "CCOC(=O)C1=CC[C@@H](c2ccccc2)N(S(=O)(=O)c2ccc(C)cc2)C1", "group": "intermediate"}
{"compound": "COCCOC(=O)N1C(=O)[C@@]2(c3cc(C#CCNC(N)=O)ccc31)[C@H](C(=O)N1CCCCCCC1)[C@H]1C(=O)O[C@H](c3ccccc3)[C@H](c3ccccc3)N1[C@@H]2c1ccc(O)cc1", "group": "intermediate"}
{"compound": "COC(=O)[C@H](Cc1ccccc1)N1CC(/C=C/C2CC2)=C[C@@H]1[C@@H](O)Cc1ccccc1", "group": "intermediate"}
{"compound": "COc1cc2c(cc1OC)CN(C(=O)[C@H]1[C@@H]3C(=O)O[C@@H](c4ccccc4)[C@@H](c4ccccc4)N3[C@@H](c3ccc(OCCO)cc3)[C@]13C(=O)Nc1ccc(C#CCCO)cc13)CC2", "group": "high"}
